Values compiled from patent US11767310B2.

experiment: Prodrug bioconversion in intestinal S9 cell fractions
Assay type: in vitro ADME
recorded conditions: Human; 0.25 mg/mL; Experiment 2

compound	Clint (prodrug disappearance)
CN(C[C@H](Cc1ccccc1)OP(=O)(O)O)C(=O)c1cncc(C#Cc2cnn(C)n2)c1 [Example 23]	241 μL/min/mg intestinal S9 protein
CN(C[C@H](Cc1ccccc1)OP(=O)(O)O)C(=O)c1cncc(C#Cc2cnn(C(F)F)c2)c1 [Example 19]	228 μL/min/mg intestinal S9 protein
CN(C[C@H](Cc1ccccc1)OC(=O)CN)C(=O)c1cncc(C#Cc2cnn(C)n2)c1 [Example 25]	294 μL/min/mg intestinal S9 protein
CN(C[C@H](Cc1ccccc1)OC(=O)CN)C(=O)c1cncc(C#Cc2cnn(C(F)F)c2)c1 [Example 21]	400 μL/min/mg intestinal S9 protein

###

We begin with a simple list: items and their reported Clint (prodrug disappearance).
experiment: Prodrug bioconversion in intestinal S9 cell fractions
Format: in vitro ADME
recorded conditions: Mouse; 0.25 mg/mL; Mean of 3 experiments
Marks after values point to notes of the source that are not given here.
value type: Clint (prodrug disappearance)

molecule	value type	experimental value
CN(C[C@H](Cc1ccccc1)OC(=O)CN)C(=O)c1cncc(C#Cc2cnn(C(F)F)c2)c1 [Example 21]	Clint (prodrug disappearance)	>480* μL/min/mg intestinal S9 protein
CN(C[C@H](Cc1ccccc1)OP(=O)(O)O)C(=O)c1cncc(C#Cc2cnn(C)n2)c1 [Example 23]	Clint (prodrug disappearance)	30.6 μL/min/mg intestinal S9 protein
CN(C[C@H](Cc1ccccc1)OP(=O)(O)O)C(=O)c1cncc(C#Cc2cnn(C(F)F)c2)c1 [Example 19]	Clint (prodrug disappearance)	53.3 μL/min/mg intestinal S9 protein
CN(C[C@H](Cc1ccccc1)OC(=O)CN)C(=O)c1cncc(C#Cc2cnn(C)n2)c1 [Example 25]	Clint (prodrug disappearance)	>480* μL/min/mg intestinal S9 protein

###

We begin with a simple list: items and their reported Clint (prodrug disappearance).
experiment: Prodrug bioconversion in intestinal S9 cell fractions
Format: in vitro ADME
recorded conditions: Rat; 0.25 mg/mL; Mean of 3 experiments

smiles data	Clint (prodrug disappearance)
CN(C[C@H](Cc1ccccc1)OP(=O)(O)O)C(=O)c1cncc(C#Cc2cnn(C(F)F)c2)c1	31 μL/min/mg intestinal S9 protein
CN(C[C@H](Cc1ccccc1)OC(=O)CN)C(=O)c1cncc(C#Cc2cnn(C)n2)c1	278 μL/min/mg intestinal S9 protein
CN(C[C@H](Cc1ccccc1)OC(=O)CN)C(=O)c1cncc(C#Cc2cnn(C(F)F)c2)c1	622 μL/min/mg intestinal S9 protein
CN(C[C@H](Cc1ccccc1)OP(=O)(O)O)C(=O)c1cncc(C#Cc2cnn(C)n2)c1	30.4 μL/min/mg intestinal S9 protein

###

We begin with a simple list: items and their reported Clint (prodrug disappearance).
experiment: Prodrug bioconversion in intestinal S9 cell fractions
Type: in vitro ADME
recorded conditions: Human; 0.25 mg/mL; Mean of 3 experiments
value type: Clint (prodrug disappearance)

smiles data	value type	experimental value
CN(C[C@H](Cc1ccccc1)OP(=O)(O)O)C(=O)c1cncc(C#Cc2cnn(C)n2)c1	Clint (prodrug disappearance)	214 μL/min/mg intestinal S9 protein
CN(C[C@H](Cc1ccccc1)OC(=O)CN)C(=O)c1cncc(C#Cc2cnn(C(F)F)c2)c1	Clint (prodrug disappearance)	382 μL/min/mg intestinal S9 protein
CN(C[C@H](Cc1ccccc1)OC(=O)CN)C(=O)c1cncc(C#Cc2cnn(C)n2)c1	Clint (prodrug disappearance)	286 μL/min/mg intestinal S9 protein
CN(C[C@H](Cc1ccccc1)OP(=O)(O)O)C(=O)c1cncc(C#Cc2cnn(C(F)F)c2)c1	Clint (prodrug disappearance)	236.3 μL/min/mg intestinal S9 protein
